# tested_on: T1, human TSLP (human, UniProt Q969D9 29-159)
# T1 construct: used biotinylated in some assays; also called hTSLP; recombinant human TSLP
# test_summary: ELISA, plate coated with human TSLP, test antibodies as human IgG1

binder: TSLP-0208 (antibody, V domains shown) VH: QVQLVQSGAEVKKPGSSVKVSCKASGFTFGSYGISWVRQAPGQGLEWLGVIIPLLGVPNYAEKFQGRVTITADTSTSTAYMELSSLRSEDTAVYYCARGAEYFYWYFDLWGQGTLVTVSS VL: QSALTQPPSASGSPGQSVTISCTGSNSDIGGYNRVSWYQQHPGKAPKLMIYEISKRPSGVPDRFSGSKSGNTASLTVSGLQAEDEADYYCSSYAGTDTFVLFGGGTKLTVL
EC50 (read off the curve): ~0.1 µg/mL

binder: TSLP-0205 (antibody, V domains shown) VH: QVQLVQSGAEVKKPGSSVKVSCKASGFTFGSYGINWVRQAPGQGLEWLGVIVPLVGVTIYAEKFQGRVTITADTSTSTAYMELSSLRSEDTAVYYCARGQEYFYWYFDLWGQGTLVTVSS VL: QSALTQPPSASGSPGQSVTISCTGTTSDIGGYNRVSWYQQHPGKAPKLMIYEVSKRPSGVPDRFSGSKSGNTASLTVSGLQAEDEADYYCSSYAGTDTFAIFGGGTKLTVL
EC50 (read off the curve): ~0.04 µg/mL

binder: TSLP-0206 (antibody, V domains shown) VH: QVQLVQSGAEVKKPGSSVKVSCKASGFTFGSYGISWVRQAPGQGLEWLGVIVPLVDVTIYAEKFQGRVTITADTSTSTAYMELSSLRSEDTAVYYCARGQEYFYWYFDLWGQGTLVTVSS VL: QSALTQPPSASGSPGQSVTISCTGTISDIGGYNRVSWYQQHPGKAPKLMIYEVSKRPSGVPDRFSGSKSGNTASLTVSGLQAEDEADYYCSSYAGTDTFVFFGGGTKLTVL
EC50 (read off the curve): ~0.04 µg/mL
